# tested_system: GSK-3β (Homo sapiens)
# Sequence (P49841 whole entry, species assumed): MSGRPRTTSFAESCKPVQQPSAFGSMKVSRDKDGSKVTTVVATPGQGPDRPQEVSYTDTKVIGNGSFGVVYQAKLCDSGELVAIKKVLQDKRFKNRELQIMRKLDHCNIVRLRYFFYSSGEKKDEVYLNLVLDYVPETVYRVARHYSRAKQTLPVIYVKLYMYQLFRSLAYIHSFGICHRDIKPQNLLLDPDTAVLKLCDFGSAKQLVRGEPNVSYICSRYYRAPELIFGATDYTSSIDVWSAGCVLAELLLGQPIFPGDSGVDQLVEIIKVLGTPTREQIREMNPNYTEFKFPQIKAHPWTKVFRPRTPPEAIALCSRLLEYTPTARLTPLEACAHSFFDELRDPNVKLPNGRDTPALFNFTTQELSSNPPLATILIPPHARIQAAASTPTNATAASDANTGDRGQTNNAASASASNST
quantity_kind: IC50 (µM)
Give bare numbers, in µM.

The value of IC50 measured for the compound O=C([O-])c1ccc[n+](C2OC(COC(=O)c3ccc(O)cc3)C(O)C2O)c1 (stereo not shown) [NPS A, Neopetroside A] turned out to be 124
